Where these numbers come from: PubChem BioAssay (Tox21)

protocol.summary: qHTS assay to identify small molecule antagonists of the estrogen receptor alpha (ER-alpha) signaling pathway using the BG1 cell line (AID 743080);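 also: BG1 cells stimulated with 17beta-estradiol alongside compound; nearly all actives have a fitted effect of over 25% in size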; also: potency is read from the fitted curve at half-maximal effect
condition.details: BG1Luc4E2 ERE-luciferase antagonist mode, luminescence; series mostly up to 70.3 µM
Results filed as inconclusive are left out. The source made the active and inactive calls. Calls follow the shape of the full dose curve.

chem.smiles: COc1ccc([C@@H]2CC(=O)c3c(O)cc(O[C@@H]4O[C@H](CO[C@@H]5O[C@@H](C)[C@H](O)[C@@H](O)[C@H]5O)[C@@H](O)[C@H](O)[C@H]4O)cc3O2)cc1O
Potency: inactive
//
chem.smiles: O=C(O)Cc1nn(Cc2ccc(Br)cc2F)c(=O)c2ccccc12
Potency: inactive
//
chem.smiles: C[C@H](Cc1ccc(O)c(O)c1)[C@@H](C)Cc1ccc(O)c(O)c1
Potency: inactive
//
chem.smiles: Nc1c(CC(=O)O)cccc1C(=O)c1ccccc1
Potency: inactive
//
chem.smiles: Cc1cnc(C(=O)O)c[n+]1[O-]
Potency: inactive
//
chem.smiles: CCCCCCCC[N+](C)(C)CCCCCCCC
Potency: 29.8 µM (active)
//
chem.smiles: CCSCC
Potency: inactive
//
chem.smiles: CCc1ncnc2cc(OC)c(OC)cc12
Potency: inactive
//
chem.smiles: Cc1cc(=O)c(C(=O)N[C@@H](C(=O)N[C@@H]2C(=O)N3C(C(=O)O)=C(CSc4nnnn4C)CS[C@H]23)c2ccc(O)cc2)c[nH]1
Potency: inactive
//
chem.smiles: COc1ccc(/C=C/C(=O)Nc2ccccc2C(=O)O)cc1OC
Potency: 8.41 µM (active)
//
chem.smiles: O=C1c2ccccc2CN2C(=O)c3ccccc3CN12
Potency: inactive
//
chem.smiles: N[C@H](C(=O)O)[C@@H]1CC(Cl)=NO1
Potency: inactive

----------
target: Glucocorticoid receptor (Homo sapiens)
protocol.summary: qHTS assay to identify small molecule antagonists of the glucocorticoid receptor (GR) signaling pathway (AID 720692)
condition.details: GR-bla HeLa, beta-lactamase FRET ratio, dexamethasone-stimulated, 18 h; series mostly up to 58.5 µM
Inconclusive results are not listed. The source made the active and inactive calls. Calls follow the shape of the dose curve; as a rule, active = well fitted inhibition curve with a large enough effect in the signal ratio in the repeat runs (not every such curve was filed as active); inconclusive = weak or mixed curves, or effect the other way; inactive = no such curve, though single readings can be large or run the other way; the % refers to the signal ratio.
Possible outcomes: Yes (active), No (inactive)

compound: Nc1nc(NC2CC2)c2ncn([C@@H]3C=C[C@@H](CO)C3)c2n1
target: Glucocorticoid receptor (Homo sapiens)
assigned.class: No

compound: C=C1[C@@H]2CC[C@@H](C2)C1(C)C
target: Glucocorticoid receptor (Homo sapiens)
assigned.class: No

compound: CO/N=C(\C(=O)N[C@@H]1C(=O)N2C(C(=O)O)=C(C[N+]3(C)CCCC3)CS[C@H]12)c1csc(N)n1
target: Glucocorticoid receptor (Homo sapiens)
assigned.class: No

compound: Cc1cccc(C)c1NC(=O)C1CCCCN1C (centres undefined)
target: Glucocorticoid receptor (Homo sapiens)
assigned.class: No

compound: CCSCC
target: Glucocorticoid receptor (Homo sapiens)
assigned.class: No

compound: Cc1cc(-c2ccc(N=Nc3ccc4c(S(=O)(=O)O)cc(S(=O)(=O)O)c(N)c4c3O)c(C)c2)ccc1N=Nc1ccc2c(S(=O)(=O)O)cc(S(=O)(=O)O)c(N)c2c1O
target: Glucocorticoid receptor (Homo sapiens)
assigned.class: No

compound: N#Cc1nc(Cl)c(Cl)c(Cl)c1Cl
target: Glucocorticoid receptor (Homo sapiens)
assigned.class: Yes

compound: CCCCCCOC(=O)c1cccnc1
target: Glucocorticoid receptor (Homo sapiens)
assigned.class: No

compound: C(=C\c1ccncc1)/c1ccccc1
target: Glucocorticoid receptor (Homo sapiens)
assigned.class: No

compound: C/C=C/C1=C(C(=O)O)N2C(=O)[C@@H](NC(=O)[C@H](N)c3ccc(O)cc3)[C@H]2SC1
target: Glucocorticoid receptor (Homo sapiens)
assigned.class: No

compound: COc1ccc([C@@H]2CC(=O)c3c(O)cc(O[C@@H]4O[C@H](CO[C@@H]5O[C@@H](C)[C@H](O)[C@@H](O)[C@H]5O)[C@@H](O)[C@H](O)[C@H]4O)cc3O2)cc1O
target: Glucocorticoid receptor (Homo sapiens)
assigned.class: No

compound: C=C1[C@H](CO)[C@@H](O)C[C@@H]1n1cnc2c(=O)[nH]c(N)nc21
target: Glucocorticoid receptor (Homo sapiens)
assigned.class: No

compound: NC(N)=NCc1cccc(I)c1
target: Glucocorticoid receptor (Homo sapiens)
assigned.class: No

compound: CC1(C)S[C@@H]2[C@H](NC(=O)[C@@H](NC(=O)N3CCNC3=O)c3ccccc3)C(=O)N2[C@H]1C(=O)O
target: Glucocorticoid receptor (Homo sapiens)
assigned.class: No

compound: CC(C)CCC[C@@H](C)[C@H]1CC[C@H]2[C@@H]3CC=C4C[C@@H](O)CC[C@]4(C)[C@H]3CC[C@]12C
target: Glucocorticoid receptor (Homo sapiens)
assigned.class: No

compound: O=C(O)c1cc(O)c2c(c1)[C@H]([C@H]1c3cc(C(=O)O)cc(O)c3C(=O)c3c(O[C@@H]4O[C@H](CO)[C@@H](O)[C@H](O)[C@H]4O)cccc31)c1cccc(O[C@@H]3O[C@H](CO)[C@@H](O)[C@H](O)[C@H]3O)c1C2=O
target: Glucocorticoid receptor (Homo sapiens)
assigned.class: No

compound: CC(C)COC(=O)OCN1C(=O)CN(CCN2CC(=O)N(COC(=O)OCC(C)C)C(=O)C2)CC1=O
target: Glucocorticoid receptor (Homo sapiens)
assigned.class: No

compound: CCCCCN=C(N)N/N=C/c1c[nH]c2ccc(OC)cc12
target: Glucocorticoid receptor (Homo sapiens)
assigned.class: No

compound: CC(=O)Nc1ccc(OC(C)=O)cc1
target: Glucocorticoid receptor (Homo sapiens)
assigned.class: No
